- Assay Comment: Partition coefficient (logP)
- Assay type: physicochemical
- Condition Info: octanol/water
Rule: measured logP below 3 gets condition met; anything equal to or greater than 3 gets condition not met.

CC[C@@H](C(=O)[C@@H](C)[C@@H](O)[C@H](C)CCc1c(Cl)cc(C)c(O)c1C(=O)O)[C@H]1O[C@](CC)([C@H]2CC[C@](O)(CC)[C@H](C)O2)C[C@@H]1C	condition not met
CC[C@@H](C(=O)[C@@H](C)[C@@H](O)[C@H](C)CCc1c(Br)cc(C)c(O)c1C(=O)O)[C@H]1O[C@](CC)([C@H]2CC[C@](O)(CC)[C@H](C)O2)C[C@@H]1C	condition not met
CCCCC(=O)Oc1c(C)ccc(CC[C@@H](C)[C@H](O)[C@H](C)C(=O)[C@H](CC)[C@H]2O[C@](CC)([C@H]3CC[C@](O)(CC)[C@H](C)O3)C[C@@H]2C)c1C(=O)O	condition met
CC[C@@H](C(=O)[C@@H](C)[C@@H](O)[C@H](C)CCc1c(N)cc(C)c(O)c1C(=O)O)[C@H]1O[C@](CC)([C@H]2CC[C@](O)(CC)[C@H](C)O2)C[C@@H]1C	condition met
CC[C@@H](C(=O)[C@@H](C)[C@@H](O)[C@H](C)CCc1c(/N=C/c2ccccc2)cc(C)c(O)c1C(=O)O)[C@H]1O[C@](CC)([C@H]2CC[C@](O)(CC)[C@H](C)O2)C[C@@H]1C	condition met
CC[C@@H](C(=O)[C@@H](C)[C@@H](O)[C@H](C)CCc1ccc(C)c(O)c1C(=O)O)[C@H]1O[C@](CC)([C@H]2CC[C@](O)(CC)[C@H](C)O2)C[C@@H]1C	condition met
CC[C@@H](C(=O)[C@@H](C)[C@@H](O)[C@H](C)CCc1c(I)cc(C)c(O)c1C(=O)O)[C@H]1O[C@](CC)([C@H]2CC[C@](O)(CC)[C@H](C)O2)C[C@@H]1C	condition not met
CC[C@@H](C(=O)[C@@H](C)[C@@H](O)[C@H](C)CCc1ccc(C)c(OC(=O)c2ccc(Br)cc2)c1C(=O)O)[C@H]1O[C@](CC)([C@H]2CC[C@](O)(CC)[C@H](C)O2)C[C@@H]1C	condition not met

---

- Assay Comment: Dissociation constant was determined
- Format: physicochemical
Readout Type: pKa

CC[C@@H](C(=O)[C@@H](C)[C@@H](O)[C@H](C)CCc1c(NC(C)=O)cc(C)c(O)c1C(=O)O)[C@H]1O[C@](CC)([C@H]2CC[C@](O)(CC)[C@H](C)O2)C[C@@H]1C	4.3
CC[C@@H](C(=O)[C@@H](C)[C@@H](O)[C@H](C)CCc1c(Cl)cc(C)c(O)c1C(=O)O)[C@H]1O[C@](CC)([C@H]2CC[C@](O)(CC)[C@H](C)O2)C[C@@H]1C	4

---

pKa values by entry
- Assay Comment: Dissociation constant was determined
- Format: physicochemical
Readout Type: pKa

CC[C@@H](C(=O)[C@@H](C)[C@@H](O)[C@H](C)CCc1c([N+]#N)cc(C)c(O)c1C(=O)O)[C@H]1O[C@](CC)([C@H]2CC[C@](O)(CC)[C@H](C)O2)C[C@@H]1C [DIAZOLASALOCID]	6.6
CC[C@@H](C(=O)[C@@H](C)[C@@H](O)[C@H](C)CCc1c([N+](=O)[O-])cc(C)c(O)c1C(=O)O)[C@H]1O[C@](CC)([C@H]2CC[C@](O)(CC)[C@H](C)O2)C[C@@H]1C	2.4
